Values compiled from ChEMBL document CHEMBL1138033.

Biological target: Betaine--homocysteine S-methyltransferase 1 (Homo sapiens) (UniProt Q93088)
Sequence (whole entry): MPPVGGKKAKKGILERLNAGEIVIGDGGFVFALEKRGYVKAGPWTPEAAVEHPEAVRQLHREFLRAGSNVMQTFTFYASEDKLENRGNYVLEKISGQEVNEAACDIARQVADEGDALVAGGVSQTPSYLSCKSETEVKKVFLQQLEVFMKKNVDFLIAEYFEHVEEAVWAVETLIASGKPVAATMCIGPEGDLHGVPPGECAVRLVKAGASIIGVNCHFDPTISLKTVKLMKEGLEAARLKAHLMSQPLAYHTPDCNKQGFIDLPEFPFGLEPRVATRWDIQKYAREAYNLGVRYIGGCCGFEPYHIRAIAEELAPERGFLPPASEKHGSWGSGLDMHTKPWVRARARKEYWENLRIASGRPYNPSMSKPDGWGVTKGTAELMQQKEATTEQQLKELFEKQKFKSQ
Experiment: Inhibition of human BHMT at 20 uM
measureName: inhibition (%)

>  <molecule>
NC(CCSCCCC(=O)O)C(=O)O (racemic)

>  <inhibition, %>
20.1

$$$$
>  <molecule>
NC(CCSc1ccc(C(=O)O)cc1)C(=O)O (racemic)

>  <inhibition, %>
98.6

$$$$
>  <molecule>
NC(CCSCCCCC(=O)O)C(=O)O (racemic)

>  <inhibition, %>
100

$$$$
>  <molecule>
NC(CCSCCCCP(=O)(O)O)C(=O)O (racemic)

>  <inhibition, %>
97.8

$$$$

[a] NC(CC[S+]([O-])CC(N)C(=O)O)C(=O)O (stereo unspecified)
[b] NC(CCSCCOCP(=O)(O)O)C(=O)O (racemic)
Exam item: Endpoint returns the identifier whose inhibition is numerically larger, either a or b . Please indicate the selected item by its label.
Marked response: b
(b: 25.5%, a: 9.5%)

----------
biological target: Betaine--homocysteine S-methyltransferase 1 (Homo sapiens); assay: Inhibition of human BHMT at 20 uM
measureName: inhibition (%)

Worked cases, answers included:
>  <compound>
NC(CCSCC(N)C(=O)O)C(=O)O (centres undefined)

>  <displayUnit>
%

>  <observedMeasurement>
18.8

$$$$
>  <compound>
NC(CCSc1ccccc1C(=O)O)C(=O)O (racemic)

>  <displayUnit>
%

>  <observedMeasurement>
42.5

$$$$

[A] NC(CCSCCCCCC(=O)O)C(=O)O (racemic)
[B] NC(CCSSCCC(N)C(=O)O)C(=O)O (centres undefined)
Exam item: Lower inhibition: A or B ? Please indicate the selected item by its label.
Marked response: B
(B: 0%, A: 100%)

----------
molecular target: Betaine--homocysteine S-methyltransferase 1 (Homo sapiens) (UniProt Q93088); experiment: Inhibition of human BHMT at 20 uM
measureName: inhibition (%)

[1] NC(CCSSCCC(=O)O)C(=O)O (racemic)
[2] NC(CCSCc1ccc(CC(=O)O)cc1)C(=O)O (racemic)
Exam item: Endpoint returns the identifier whose inhibition is numerically larger, either 1 or 2 . Please indicate the selected item by its label.
Marked response: 1
(1: 30%, 2: 10.1%)

----------
Biological target: UniProt:Q93088
Sequence (whole entry): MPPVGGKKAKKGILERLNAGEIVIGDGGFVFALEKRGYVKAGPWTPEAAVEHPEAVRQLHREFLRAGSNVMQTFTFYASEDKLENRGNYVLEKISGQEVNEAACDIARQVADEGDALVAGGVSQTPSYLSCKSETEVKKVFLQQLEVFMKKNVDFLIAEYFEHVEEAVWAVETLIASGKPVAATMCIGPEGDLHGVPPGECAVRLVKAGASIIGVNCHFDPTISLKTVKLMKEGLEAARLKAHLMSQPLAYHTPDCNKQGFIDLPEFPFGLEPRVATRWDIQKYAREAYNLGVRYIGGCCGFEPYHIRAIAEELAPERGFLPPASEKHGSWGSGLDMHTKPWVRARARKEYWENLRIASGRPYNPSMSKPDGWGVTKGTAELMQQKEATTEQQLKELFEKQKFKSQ
Experiment: Inhibition of human BHMT at 1 uM
measureName: inhibition (%)

>  <compound>
NC(CCSCCCCP(=O)(O)O)C(=O)O (racemic)

>  <assayTarget>
UniProt:Q93088

>  <displayUnit>
%

>  <observedMeasurement>
74

$$$$
>  <compound>
NC(CCSCCSCC(=O)O)C(=O)O (racemic)

>  <assayTarget>
UniProt:Q93088

>  <displayUnit>
%

>  <observedMeasurement>
96.8

$$$$
>  <compound>
NC(CC[S+]([O-])CCCCC(=O)O)C(=O)O (racemic)

>  <assayTarget>
UniProt:Q93088

>  <displayUnit>
%

>  <observedMeasurement>
67.8

$$$$
>  <compound>
NC(CCSCCCCCC(=O)O)C(=O)O (racemic)

>  <assayTarget>
UniProt:Q93088

>  <displayUnit>
%

>  <observedMeasurement>
99.9

$$$$
>  <compound>
NC(CCSSCCC(=O)O)C(=O)O (racemic)

>  <assayTarget>
UniProt:Q93088

>  <displayUnit>
%

>  <observedMeasurement>
0

$$$$
>  <compound>
NC(CCSCCCCC(=O)O)C(=O)O (racemic)

>  <assayTarget>
UniProt:Q93088

>  <displayUnit>
%

>  <observedMeasurement>
98.3

$$$$

[1] NC(CCSc1ccc(C(=O)O)cc1)C(=O)O (racemic)
[2] NC(CCSCC[S+]([O-])CC(=O)O)C(=O)O (racemic)
Exam item: Endpoint returns the identifier whose inhibition is numerically larger, either 1 or 2 . Please indicate the selected item by its label.
Marked response: 1
(1: 84.8%, 2: 55.3%)

----------
IC50 values recorded for Betaine--homocysteine S-methyltransferase 1 (Homo sapiens, UniProt Q93088)
measureName: IC50 (µM)

[A] NC(CCSCCSCC(=O)O)C(=O)O (racemic)
[B] NC(CCSc1ccc(C(=O)O)cc1)C(=O)O (racemic)
Exam item: Endpoint returns the identifier whose IC50 is numerically larger, either A or B . Please indicate the selected item by its label.
Marked response: B

----------
molecular target: Betaine--homocysteine S-methyltransferase 1 (Homo sapiens); experiment: Inhibition of human BHMT at 20 uM
measureName: inhibition (%)

>  <molecule>
NC(CCSCCSCC(=O)O)C(=O)O (racemic)

>  <inhibition [%]>
100

$$$$
>  <molecule>
NC(CCS(=O)(=O)CCCCC(=O)O)C(=O)O (racemic)

>  <inhibition [%]>
28.8

$$$$
>  <molecule>
NC(CC[S+]([O-])CCCCC(=O)O)C(=O)O (racemic)

>  <inhibition [%]>
97.3

$$$$
>  <molecule>
NC(CCSCC[S+]([O-])CC(=O)O)C(=O)O (racemic)

>  <inhibition [%]>
89.8

$$$$
>  <molecule>
COC(=O)C(N)CCSCC(=O)NCP(=O)(O)O (racemic)

>  <inhibition [%]>
0

$$$$
>  <molecule>
N[C@@H](CSCCCCC(=O)O)C(=O)O

>  <inhibition [%]>
0

$$$$

[I] CSCSCCC(N)C(=O)O (racemic)
[II] NC(CCSCC(=O)NCP(=O)(O)O)C(=O)O (racemic)
[III] NC(CCSc1cccc(C(=O)O)c1)C(=O)O (racemic)
[IV] C=CCSCCC(N)C(=O)O (racemic)
Exam item: Rank order required: inhibition, descending. Returns: the labels listed in the requested order.
Marked response: I, III, II, IV
(I: 20.5%, III: 12.8%, II: 8.8%, IV: 0%)
